The measurements presented in this section are drawn from patent US20230303649A1.

Target: T1, IL-2R on human primary T cells (human, UniProt P01589 22-272; P14784 27-551; P31785 23-369)
T1 sequence (looked up) 1: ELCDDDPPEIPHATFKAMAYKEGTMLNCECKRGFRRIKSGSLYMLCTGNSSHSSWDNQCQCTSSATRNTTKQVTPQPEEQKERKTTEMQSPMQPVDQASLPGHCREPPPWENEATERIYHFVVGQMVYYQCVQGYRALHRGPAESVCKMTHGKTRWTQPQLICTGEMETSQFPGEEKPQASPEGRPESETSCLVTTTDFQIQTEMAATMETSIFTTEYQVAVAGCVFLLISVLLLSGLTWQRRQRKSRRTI
T1 sequence (looked up) 2: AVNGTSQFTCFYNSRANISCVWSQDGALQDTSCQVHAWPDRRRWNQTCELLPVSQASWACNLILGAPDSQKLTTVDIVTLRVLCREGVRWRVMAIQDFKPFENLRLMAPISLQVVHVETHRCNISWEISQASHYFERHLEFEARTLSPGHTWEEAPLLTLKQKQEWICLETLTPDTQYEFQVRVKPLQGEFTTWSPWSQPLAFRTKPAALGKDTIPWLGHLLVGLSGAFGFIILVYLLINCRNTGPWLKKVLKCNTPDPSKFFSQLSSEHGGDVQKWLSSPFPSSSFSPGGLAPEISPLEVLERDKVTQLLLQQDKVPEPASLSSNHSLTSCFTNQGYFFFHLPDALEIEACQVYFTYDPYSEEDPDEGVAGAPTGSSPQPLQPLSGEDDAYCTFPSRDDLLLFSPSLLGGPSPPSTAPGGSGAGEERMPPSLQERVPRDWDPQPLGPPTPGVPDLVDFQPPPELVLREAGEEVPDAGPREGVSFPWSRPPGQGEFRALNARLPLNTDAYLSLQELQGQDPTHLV
T1 sequence (looked up) 3: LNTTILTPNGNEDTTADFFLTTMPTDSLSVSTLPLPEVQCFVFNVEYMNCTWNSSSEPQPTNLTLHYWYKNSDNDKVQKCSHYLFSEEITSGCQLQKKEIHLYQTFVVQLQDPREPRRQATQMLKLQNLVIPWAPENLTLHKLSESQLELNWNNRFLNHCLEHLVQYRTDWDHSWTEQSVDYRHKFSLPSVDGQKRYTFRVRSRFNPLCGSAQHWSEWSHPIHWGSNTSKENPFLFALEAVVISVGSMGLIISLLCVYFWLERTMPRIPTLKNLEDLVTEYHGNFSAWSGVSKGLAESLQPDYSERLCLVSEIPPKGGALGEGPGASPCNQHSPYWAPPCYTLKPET
Test: cell-based or functional assay
Measure Name: CD4 conv EC50 (nM), STAT5 phosphorylation

1) SEQ ID NO 25 (ligand) APTSSSTKKTQLQLEHLLLDLQMILNGINNHKNPRLTRMLTFKFYMPKKATELKHLQCLEEELKPLEEALRLAPSKNFHLRPRDLISNINVIVLELKGSETTFMCEYADETATIVEFLNRWITFSTSIISTLT
2290
2) SEQ ID NO 16 (ligand) APTSSSTKKTQLQLEHLRLDLEMILNGINNYKNPKLTRMLTFKFYMPKKATELKHLQCLEEELKPLEEVLNLAQSKNFHFDPRDVVSNINVFVLELKGSETTFMCEYADETATIVEFLNRWITFSQSIISTLT
1.31
3) SEQ ID NO 18 (ligand) APTSSSTKKTQLQLEHLLLDLQMILNGINNYKNPKLTRMLTFKFYMPKKATELKHLQCLEEELKPLEEVLNLAQSKNFHFDPRDVVSNINVFVLELKGSETTFMCEYADETATIVEFLNRWITFSQSIISTLT
15.9
4) SEQ ID NO 15 (ligand) APTSSSTKKTQLQLEHLLLDLQMILNGINNHKNPRLTRMLTFKFYMPKKATELKHLQCLEEELKPLEEVLRLAPSKNFHLRPRDLISNINVIVLELKGSETTFMCEYADETATIVEFLNRWITFSQSIISTLT
2.52
